Assay: recombinant UMI read abundance after kanamycin selection (control-corrected) (log10(CPM+1)); higher = more efficient recombination; extreme values may be limits of the assay; sequences stand for … in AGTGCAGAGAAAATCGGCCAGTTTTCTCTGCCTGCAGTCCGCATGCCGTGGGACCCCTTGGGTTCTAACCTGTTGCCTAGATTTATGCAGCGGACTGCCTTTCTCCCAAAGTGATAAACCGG…AGGTTGGTTTCACT; site = the 11-nt donor;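 further: IS621 bridge recombinase in Escherichia coli cells against a fixed T5 target plasmid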
Would you kindly list recombinant UMI read abundance (log10) for each of these sequences?
Give bare numbers.

# example entries with known answers
* CTGGTATCATGGACCGGTTTTCCCGGTAATCCGTATTTGAC (site CTAGTATCTGT) | 3.16
* GCTCCTGCATGGACCGGTTTTCCCGGTAATCCGTATTTGCC (site GCTGCTGCTGG) | 0

Now for the sequence whose recombinant UMI read abundance (log10) we want.
The value of recombinant UMI read abundance (log10) measured for the sequence CCTTAGACATGGACCGGTTTTCCCGGTAATCCGTATTTGAG (site CGTTAGACTCT) turned out to be 0.0159
